molecular target: hNR2B (Homo sapiens, UniProt Q05586+Q13224); construct: expressed in transfected cells; host or cells: Xenopus laevis oocytes, cRNA-injected; experiment: Electrophysiology NMDA receptor experiments: two electrode voltage-clamp in Xenopus laevis oocytes, hNR2B IC50; type: cell-based; settings: voltage clamp -40 mV, 50 μM glutamate, 30 μM glycine, read-out: hNR2B IC50
Sequence (Q13224 27-1484, other chains not shown): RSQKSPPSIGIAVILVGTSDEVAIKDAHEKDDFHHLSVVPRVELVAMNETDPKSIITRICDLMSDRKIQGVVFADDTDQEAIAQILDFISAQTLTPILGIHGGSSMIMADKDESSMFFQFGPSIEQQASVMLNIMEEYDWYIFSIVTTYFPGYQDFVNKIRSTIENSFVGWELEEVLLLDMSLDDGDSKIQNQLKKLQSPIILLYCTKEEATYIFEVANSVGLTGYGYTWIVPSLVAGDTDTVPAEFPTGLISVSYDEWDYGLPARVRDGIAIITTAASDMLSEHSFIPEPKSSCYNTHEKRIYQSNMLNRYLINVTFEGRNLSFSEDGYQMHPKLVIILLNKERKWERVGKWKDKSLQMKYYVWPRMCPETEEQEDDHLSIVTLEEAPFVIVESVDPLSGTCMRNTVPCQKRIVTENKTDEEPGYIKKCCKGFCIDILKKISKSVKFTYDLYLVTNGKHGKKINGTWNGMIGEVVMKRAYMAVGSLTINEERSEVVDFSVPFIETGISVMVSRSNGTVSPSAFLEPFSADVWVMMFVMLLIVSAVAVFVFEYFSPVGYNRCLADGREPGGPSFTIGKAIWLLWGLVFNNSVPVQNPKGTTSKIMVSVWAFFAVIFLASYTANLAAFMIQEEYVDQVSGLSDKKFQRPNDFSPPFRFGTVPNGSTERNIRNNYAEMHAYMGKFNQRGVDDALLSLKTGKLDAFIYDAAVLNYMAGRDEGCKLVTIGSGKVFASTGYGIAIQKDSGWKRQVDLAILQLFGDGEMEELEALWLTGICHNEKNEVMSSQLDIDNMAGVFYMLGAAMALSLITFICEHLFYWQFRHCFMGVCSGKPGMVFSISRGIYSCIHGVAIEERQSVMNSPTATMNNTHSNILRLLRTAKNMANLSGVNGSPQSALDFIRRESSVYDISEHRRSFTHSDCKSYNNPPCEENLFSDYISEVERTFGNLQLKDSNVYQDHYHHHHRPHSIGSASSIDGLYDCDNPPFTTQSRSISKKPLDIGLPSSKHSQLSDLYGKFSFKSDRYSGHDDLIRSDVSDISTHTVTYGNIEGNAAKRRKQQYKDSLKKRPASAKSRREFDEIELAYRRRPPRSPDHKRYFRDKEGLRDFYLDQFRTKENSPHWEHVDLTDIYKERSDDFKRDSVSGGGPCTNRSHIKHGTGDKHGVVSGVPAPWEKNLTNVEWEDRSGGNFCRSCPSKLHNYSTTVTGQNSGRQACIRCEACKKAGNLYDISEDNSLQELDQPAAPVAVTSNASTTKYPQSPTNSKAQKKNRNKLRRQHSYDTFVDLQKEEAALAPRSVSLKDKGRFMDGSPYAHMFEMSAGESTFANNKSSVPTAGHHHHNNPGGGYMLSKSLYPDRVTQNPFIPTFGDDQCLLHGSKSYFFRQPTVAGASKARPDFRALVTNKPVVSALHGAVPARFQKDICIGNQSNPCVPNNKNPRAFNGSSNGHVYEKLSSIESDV
pIC50: −log10 of the molar value.
Readout Label: pIC50

// solved cases for pIC50 follow
{"Sample Smiles": "O=c1ccc2cc(OCc3nc(Nc4ccc(OC(F)F)cc4)no3)ccc2[nH]1", "Subject Of Test": "hNR2B (Homo sapiens, UniProt Q05586+Q13224)", "pIC50": 6.77}
{"Sample Smiles": "O=c1ccc2cc(OCc3cc(NCc4ccc(OC(F)F)cc4)no3)ccc2[nH]1", "Subject Of Test": "hNR2B (Homo sapiens, UniProt Q05586+Q13224)", "pIC50": 6.49}
{"Sample Smiles": "O=C1CCc2cc(OCc3nnc(Cc4ccc(Cl)c(Cl)c4)[nH]3)ccc2N1", "Subject Of Test": "hNR2B (Homo sapiens, UniProt Q05586+Q13224)", "pIC50": 4.70}

(I) O=C1CCc2cc(OCc3nnc(Nc4ccc(Cl)cc4)o3)ccc2N1
(II) Cn1c(COc2ccc3[nH]c(=O)ccc3c2)nnc1Nc1ccc(OC(F)F)cc1
Req: Looking at I and II , which one comes out lower in pIC50 terms? Use the label to indicate which entry you chose.
Resp: I
(I: 6.15, II: 7.05)

----------
The following molecules are listed with their measured IC50 values.
molecular target: hNR2B (Homo sapiens, UniProt Q05586+Q13224); construct: expressed in transfected cells; host or cells: Xenopus laevis oocytes, cRNA-injected; assay: Electrophysiology NMDA receptor experiments: two electrode voltage-clamp in Xenopus laevis oocytes, hNR2B IC50; assay type: cell-based; settings: hNR2B activity class, 50 μM glutamate, 30 μM glycine, read-out: Activity

// solved cases for IC50 follow
{"Sample Smiles": "O=c1ccc2cc(CCc3nnc(Nc4ccc(OC(F)(F)F)c(Cl)c4)o3)ccc2[nH]1", "Subject Of Test": "hNR2B (Homo sapiens, UniProt Q05586+Q13224)", "IC50": "< 200 nM"}
{"Sample Smiles": "O=c1ccc2cc(OCc3nnc(Nc4ccccc4F)o3)ccc2[nH]1", "Subject Of Test": "hNR2B (Homo sapiens, UniProt Q05586+Q13224)", "IC50": "> 10000 nM"}
{"Sample Smiles": "FC(F)Oc1ccc(Nc2noc(CCc3ccc4cn[nH]c4c3)n2)cc1Cl", "Subject Of Test": "hNR2B (Homo sapiens, UniProt Q05586+Q13224)", "IC50": "< 200 nM"}

GET /value?item= Oc1cccc(Cc2nnc(Nc3ccc(Cl)c(Cl)c3)o2)c1 &field=IC50 returns 1000 to 10000 nM

GET /value?item= Oc1ccc(CCc2nc(Nc3ccc(C(F)(F)F)cc3)no2)cc1 &field=IC50 returns 201 to 1000 nM

GET /value?item= O=C1COc2cc(OCc3nnc(NCc4ccc(Cl)c(Cl)c4)o3)ccc2N1 &field=IC50 returns 201 to 1000 nM

----------
target: hNR2B (Homo sapiens, UniProt Q05586+Q13224); construct: expressed in transfected cells; host or cells: Xenopus laevis oocytes, cRNA-injected; assay: Electrophysiology NMDA receptor experiments: two electrode voltage-clamp in Xenopus laevis oocytes, hNR2B IC50; assay type: cell-based; conditions: hNR2B activity class, 50 μM glutamate, 30 μM glycine, read-out: Activity
pIC50: −log10 of the molar value.
Readout Label: pIC50

{"Sample Smiles": "O=C1Cc2cc(OCc3nnc(NCc4ccc(Cl)c(Cl)c4)o3)ccc2N1", "Experimental Result": "> 6.70"}
{"Sample Smiles": "Oc1cccc(OCc2nnc(Nc3ccc(Cl)c(Cl)c3)o2)c1", "Experimental Result": "5.00 to 6.00"}
{"Sample Smiles": "COc1ccc(Nc2cc(COc3ccc4[nH]c(=O)ccc4c3)on2)cc1Cl", "Experimental Result": "> 6.70"}
{"Sample Smiles": "CCOC(=O)Nc1ccc(OCc2nnc(Nc3ccc(Cl)c(Cl)c3)o2)cc1", "Experimental Result": "< 5.00"}

// below: pIC50 requested for another compound
pIC50 of CC(C)c1ccc(Nc2nnc(COc3ccc4[nH]c(=O)ccc4c3)o2)cc1 , assay on hNR2B (Homo sapiens, UniProt Q05586+Q13224), is > 6.70

----------
target: hNR2B (Homo sapiens, UniProt Q05586+Q13224); construct: expressed in transfected cells; host or cells: Xenopus laevis oocytes, cRNA-injected; experiment: Electrophysiology NMDA receptor experiments: two electrode voltage-clamp in Xenopus laevis oocytes, hNR2B IC50; format: cell-based; details: voltage clamp -40 mV, 50 μM glutamate, 30 μM glycine, read-out: hNR2B IC50
pIC50: −log10 of the molar value.
Readout Label: pIC50

(I) O=c1ccc2cc(OCc3nnc(Nc4ccc(C(F)(F)F)cc4)s3)ccc2[nH]1 [Example 241]
(II) FC(F)Oc1ccc(Nc2nnc(CCc3ccc4[nH]nc(C(F)(F)F)c4c3)o2)cc1Cl [Example 142]
(III) CS(=O)(=O)Nc1ccc(OCc2nnc(NCc3ccc(Cl)c(Cl)c3)o2)cc1 [Example 30]
Req: Ordering criterion: pIC50; begin with the maximum. // list labels; follow requested order
Resp: III, I, II

----------
biological target: hNR2B (Homo sapiens, UniProt Q05586+Q13224); construct: expressed in transfected cells; host or cells: Xenopus laevis oocytes, cRNA-injected; experiment: Electrophysiology NMDA receptor experiments: two electrode voltage-clamp in Xenopus laevis oocytes, hNR2B IC50; assay type: cell-based; conditions: voltage clamp -40 mV, 50 μM glutamate, 30 μM glycine, read-out: hNR2B IC50
pIC50: −log10 of the molar value.
Readout Label: pIC50

{"Compound": "O=c1ccc2cc(OCc3nnc(NCc4ccc(Cl)nc4)s3)ccc2[nH]1 [Example 251]", "pIC50": 5.03}

(P) O=c1ccc2cc(OCc3nnc(Cc4ccc(Cl)c(Cl)c4)o3)ccc2[nH]1 [Example 289]
(Q) O=c1ccc2cc(OCc3nc(Nc4ccc(C(F)(F)F)cc4)no3)ccc2[nH]1 [Example 181]
(R) O=c1ccc2cc(OCc3nnc(Nc4cc(Cl)cc(Cl)c4)o3)ccc2[nH]1 [Example 53]
(S) O=c1ccc2cc(OCc3nnc(Nc4cccc(Cl)c4)o3)ccc2[nH]1 [Example 58]
(T) Cc1ccc(Nc2noc(CCc3ccc4[nH]ncc4c3)n2)cc1F [Example 209]
Req: Arrange the 5 compounds by rising pIC50, starting with the smallest. // list labels; follow requested order
Resp: R, P, S, Q, T
(R: 5.39, P: 5.62, S: 6.08, Q: 6.84, T: 7.72)

----------
target: hNR2B (Homo sapiens, UniProt Q05586+Q13224); construct: expressed in transfected cells; host or cells: Xenopus laevis oocytes, cRNA-injected; experiment: Electrophysiology NMDA receptor experiments: two electrode voltage-clamp in Xenopus laevis oocytes, hNR2B IC50; assay type: cell-based; settings: hNR2B activity class, 50 μM glutamate, 30 μM glycine, read-out: Activity
The following compounds are listed with their measured IC50 values.

// solved cases for IC50 follow
{"Compound": "FC(F)Oc1ccc(Nc2cc(COc3ccc4[nH]ncc4c3)on2)cc1", "Readout Label": "IC50", "Experimental Result": "< 200 nM"}
{"Compound": "O=C1CCc2cc(OCc3nnc(Nc4ccc(Cl)cc4)s3)ccc2N1", "Readout Label": "IC50", "Experimental Result": "201 to 1000 nM"}
{"Compound": "O=c1ccc2cc(OCc3nc(Nc4ccc(Cl)cc4)no3)ccc2[nH]1", "Readout Label": "IC50", "Experimental Result": "1000 to 10000 nM"}
{"Compound": "Oc1ccc(CCc2nnc(Nc3ccc(OC(F)(F)F)cc3)o2)cc1", "Readout Label": "IC50", "Experimental Result": "< 200 nM"}
{"Compound": "FC(F)Oc1ccc(Nc2noc(CCc3ccc4[nH]nc(Cl)c4c3)n2)cc1Cl", "Readout Label": "IC50", "Experimental Result": "1000 to 10000 nM"}
{"Compound": "Fc1cc(Nc2noc(CCc3cnc4[nH]ncc4c3)n2)ccc1OC(F)F", "Readout Label": "IC50", "Experimental Result": "< 200 nM"}

GET /value?item= O=C1CCc2cc(OCc3nnc(NCc4ccc(Cl)c(Cl)c4)s3)ccc2N1 &field=IC50 returns 201 to 1000 nM

GET /value?item= Oc1c(F)cc(OCc2nnc(Nc3ccc(Cl)c(Cl)c3)o2)cc1F &field=IC50 returns 201 to 1000 nM

GET /value?item= O=c1ccc2cc(OCc3nc(Nc4ccc(F)c(Cl)c4)no3)ccc2[nH]1 &field=IC50 returns 1000 to 10000 nM

GET /value?item= O=c1ccc2cc(OCc3nnc(NCc4ccc(OC(F)(F)F)cc4)o3)ccc2[nH]1 &field=IC50 returns < 200 nM

GET /value?item= O=c1ccc2cc(OCc3nnc(Nc4cccc(Cl)c4Cl)o3)ccc2[nH]1 &field=IC50 returns < 200 nM

GET /value?item= O=c1ccc2cc(OCc3nnc(Nc4ccccc4C(F)(F)F)o3)ccc2[nH]1 &field=IC50 returns > 10000 nM

GET /value?item= O=c1ccc2cc(OCc3nnc(Nc4ccccc4Cl)o3)ccc2[nH]1 &field=IC50 returns > 10000 nM

GET /value?item= O=c1ccc2cc(OCc3nnc(Nc4ccc(Cl)c(C(F)(F)F)c4)o3)ccc2[nH]1 &field=IC50 returns < 200 nM

GET /value?item= FC(F)Oc1ccc(Nc2noc(CCCc3ccc4[nH]ncc4c3)n2)cc1Cl &field=IC50 returns 1000 to 10000 nM

GET /value?item= CCc1ccc(Nc2cc(COc3ccc4[nH]c(=O)ccc4c3)on2)cc1 &field=IC50 returns < 200 nM

GET /value?item= CCc1ccc(Nc2noc(CCc3ccc4[nH]ncc4c3)n2)cc1 &field=IC50 returns < 200 nM

GET /value?item= Oc1ccc(CCc2nc(Nc3ccc(Cl)c(Cl)c3)no2)cc1 &field=IC50 returns 1000 to 10000 nM

GET /value?item= Cc1cc(Nc2noc(C3CC3c3ccc4[nH]ncc4c3)n2)ccc1OC(F)F (centres unmarked) &field=IC50 returns 201 to 1000 nM
